Protocol text: Solubility test in buffer, LC-MS
Format: physicochemical
Reported conditions: aqueous buffer, thermodynamic from solid, room temperature, shaking 8 h, pH not given (method: pH 2.0, 6.5, 7.4)
Endpoint label: solubility at 8 h

Lab note: COc1cc(COc2nsc(NC(=O)NCCCCN3CCCC3)c2C(N)=O)cc(OC)c1 [Compound T006] gave solubility at 8 h of 1170 µg/mL

Lab note: Cn1nc(COc2nsc(NC(=O)NCCCCN3CCCC3)c2C(N)=O)cc1Br [Compound T022] gave solubility at 8 h of 1290 µg/mL

Lab note: COc1cccc(COc2nsc(NC(=O)NCCCCN3CCCC3)c2C(N)=O)c1F [Compound T030] gave solubility at 8 h of 1520 µg/mL

Lab note: CN1CCN(CCNC(=O)Nc2snc(OCc3ccc(F)c(C(=O)NC4CC4)c3)c2C(N)=O)CC1 [Compound T149] gave solubility at 8 h of 1580 µg/mL

* * *

Subject of test: VEGFR2 (Homo sapiens, UniProt P35968)
Sequence (P35968 790-1356 limits assumed): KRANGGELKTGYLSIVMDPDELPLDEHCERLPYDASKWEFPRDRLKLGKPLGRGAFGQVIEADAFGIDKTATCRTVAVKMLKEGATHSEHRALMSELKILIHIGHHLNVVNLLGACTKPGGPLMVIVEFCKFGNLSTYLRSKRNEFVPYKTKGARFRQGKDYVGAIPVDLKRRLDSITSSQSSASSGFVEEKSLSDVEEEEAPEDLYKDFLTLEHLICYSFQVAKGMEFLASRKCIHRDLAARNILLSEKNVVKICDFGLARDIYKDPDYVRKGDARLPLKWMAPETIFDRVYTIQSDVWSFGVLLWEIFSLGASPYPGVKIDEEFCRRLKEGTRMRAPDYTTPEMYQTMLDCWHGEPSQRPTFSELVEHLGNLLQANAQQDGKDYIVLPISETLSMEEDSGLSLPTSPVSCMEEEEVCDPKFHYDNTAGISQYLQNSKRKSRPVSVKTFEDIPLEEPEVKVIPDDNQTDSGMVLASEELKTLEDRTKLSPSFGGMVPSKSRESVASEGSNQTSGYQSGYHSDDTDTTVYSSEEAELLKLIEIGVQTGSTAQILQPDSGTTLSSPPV
Protocol text: Kinase inhibition, Mobility Shift Assay/IMAP, VEGFR2
Format: biochemical
Design: purchased Carna 08-191
Endpoint label: pIC50
Value format note: pIC50 is -log10 of concentration (mol/L); just state the number.

Reported pIC50 (VEGFR2 (Homo sapiens, UniProt P35968)) for entry COc1cc(OC)c(F)c(COc2nsc(NC(=O)NCCC3CCN(C)CC3)c2C(N)=O)c1F is 8.86

Reported pIC50 (VEGFR2 (Homo sapiens, UniProt P35968)) for entry CCN1CCN(CCCNC(=O)Nc2snc(OCc3cc(C(=O)NC4CC4)ccc3F)c2C(N)=O)CC1 is 9.49

Reported pIC50 (VEGFR2 (Homo sapiens, UniProt P35968)) for entry NC(=O)c1c(OCc2c(F)cc3c(c2F)OCC3)nsc1NC(=O)NCCCCN1CC[C@H](O)C1 is 8.18

Reported pIC50 (VEGFR2 (Homo sapiens, UniProt P35968)) for entry CN1CCN(CCCNC(=O)Nc2snc(OCc3ccc4c(c3)OCC4)c2C(N)=O)CC1 is 8.15

Reported pIC50 (VEGFR2 (Homo sapiens, UniProt P35968)) for entry NC(=O)c1c(OCc2cc(C(=O)NC3CC3)ccc2F)nsc1NC(=O)NCCCCN1CCCC1 is 8.78

Reported pIC50 (VEGFR2 (Homo sapiens, UniProt P35968)) for entry COc1cc(COc2nsc(NC(=O)NCCCCN3CC[C@H](F)C3)c2C(N)=O)cc(OC)c1 is 7.23

Reported pIC50 (VEGFR2 (Homo sapiens, UniProt P35968)) for entry CN1CCC(CCNC(=O)Nc2snc(OCc3cc(F)c4c(c3)OCC4)c2C(N)=O)CC1 is 8.17

Reported pIC50 (VEGFR2 (Homo sapiens, UniProt P35968)) for entry CN1CCC(CCNC(=O)Nc2snc(OCc3ccc4c(c3)OCC4)c2C(N)=O)CC1 is 7.98

Reported pIC50 (VEGFR2 (Homo sapiens, UniProt P35968)) for entry Cc1cc(COc2nsc(NC(=O)NCCCCN3CCCC3)c2C(N)=O)nn1C is 6.66

Reported pIC50 (VEGFR2 (Homo sapiens, UniProt P35968)) for entry COc1ccc(Cl)c(COc2nsc(NC(=O)NCCCCN3CCCC3)c2C(N)=O)c1F is 7.98

Reported pIC50 (VEGFR2 (Homo sapiens, UniProt P35968)) for entry COc1cc(OC)c(F)c(COc2nsc(NC(=O)NCCC3CCN(CCF)CC3)c2C(N)=O)c1F is 8.57

Reported pIC50 (VEGFR2 (Homo sapiens, UniProt P35968)) for entry CN(C)CCCn1ncc(Nc2snc(OCc3c(F)cc(Br)cc3F)c2C(N)=O)n1 is 8.09

Reported pIC50 (VEGFR2 (Homo sapiens, UniProt P35968)) for entry NC(=O)c1c(OCc2cc(C(=O)NC3CC3)ccc2F)nsc1NC(=O)NCCC(=O)O is 8.59

Reported pIC50 (VEGFR2 (Homo sapiens, UniProt P35968)) for entry NC(=O)c1c(OCc2ccc3c(c2)CCO3)nsc1NC(=O)NCCCCN1CCCC1 is 6.89

Reported pIC50 (VEGFR2 (Homo sapiens, UniProt P35968)) for entry NC(=O)c1c(OCc2cc(C(=O)NC3CC3)ccc2Cl)nsc1NC(=O)NCCCCN1CCCC1 is 9.20

Reported pIC50 (VEGFR2 (Homo sapiens, UniProt P35968)) for entry NC(=O)c1c(OCc2cc(C(=O)NC3CC3)ccc2F)nsc1NC(=O)NCCCN1CC[C@@H](F)C1 is 8.59

Reported pIC50 (VEGFR2 (Homo sapiens, UniProt P35968)) for entry NC(=O)c1c(OCc2ccc3c(c2)OCO3)nsc1NC(=O)NCCCCN1CCCC1 is 7.37

Reported pIC50 (VEGFR2 (Homo sapiens, UniProt P35968)) for entry CCN1CCC(CCNC(=O)Nc2snc(OCc3ccc4c(c3)OCC4)c2C(N)=O)CC1 is 7.90

Reported pIC50 (VEGFR2 (Homo sapiens, UniProt P35968)) for entry N#CCCNC(=O)Nc1snc(OCc2cc(C(=O)NC3CC3)ccc2F)c1C(N)=O is 8.52

Reported pIC50 (VEGFR2 (Homo sapiens, UniProt P35968)) for entry COc1cc(COc2nsc(NC(=O)NCCCCN3CCCC3)c2C(N)=O)c(F)c(OC)c1 is 8.04

Reported pIC50 (VEGFR2 (Homo sapiens, UniProt P35968)) for entry NC(=O)c1ccc(F)c(COc2nsc(NC(=O)NCCCN3CC[C@H](F)C3)c2C(N)=O)c1 is 8.07

Reported pIC50 (VEGFR2 (Homo sapiens, UniProt P35968)) for entry NC(=O)c1c(OCc2c(F)cc(Br)cc2F)nsc1Nc1cncc(OCCN2CCCC2)c1 is 7.65

Reported pIC50 (VEGFR2 (Homo sapiens, UniProt P35968)) for entry CNC(=O)c1cccc(COc2nsc(NC(=O)NCCCCN3CCCC3)c2C(N)=O)c1 is 7.70

Reported pIC50 (VEGFR2 (Homo sapiens, UniProt P35968)) for entry NC(=O)c1c(OCc2c(F)cc3c(c2F)OCC3)nsc1NC(=O)NCCCCN1CCCC1 is 7.92

Reported pIC50 (VEGFR2 (Homo sapiens, UniProt P35968)) for entry NC(=O)c1c(OCc2cc(C(=O)NC3CC3)ccc2F)nsc1NC(=O)NCCCN1CC[C@H](O)C1 is 8.80

Reported pIC50 (VEGFR2 (Homo sapiens, UniProt P35968)) for entry NC(=O)c1c(OCc2ccc(F)c(C(=O)NC3CC3)c2)nsc1NC(=O)NCCCN1CCN(C2CC2)CC1 is 8.84

Reported pIC50 (VEGFR2 (Homo sapiens, UniProt P35968)) for entry CN1CCN(CCNC(=O)Nc2snc(OCc3ccc(F)c(C(=O)NC4CC4)c3)c2C(N)=O)CC1 is 8.63

Reported pIC50 (VEGFR2 (Homo sapiens, UniProt P35968)) for entry COc1ccc(F)c(COc2nsc(NC(=O)NCCCCN3CC[C@H](O)C3)c2C(N)=O)c1F is 7.78

Reported pIC50 (VEGFR2 (Homo sapiens, UniProt P35968)) for entry COc1ccc(F)c(COc2nsc(NC(=O)NCCCCN3CCCC3)c2C(N)=O)c1F is 7.91

Reported pIC50 (VEGFR2 (Homo sapiens, UniProt P35968)) for entry COc1ccc(F)c(COc2nsc(NC(=O)NCCCCN3CCCC3)c2C(N)=O)c1 is 7.76

Reported pIC50 (VEGFR2 (Homo sapiens, UniProt P35968)) for entry NC(=O)c1c(OCc2cccc(-n3cccn3)c2)nsc1NC(=O)NCCCCN1CCCC1 is 6.77

Reported pIC50 (VEGFR2 (Homo sapiens, UniProt P35968)) for entry NC(=O)c1c(OCc2cc3c(cc2F)CCO3)nsc1NC(=O)NCCCCN1CC[C@H](F)C1 is 8.14
